# System: periplasmic domain of RseA
# assay-comment: Cleavage of 35S-labeled RseA periplasmic domain by DegS variants
# Type: biochemical, E. coli
# assay-conditions: H198P background; with YYF; % of H198P parent
Would you kindly list YYF-stimulated cleavage activity relative to H198P parental enzyme for each of these molecules?

Which value of YYF-stimulated cleavage activity relative to H198P parental enzyme has been reported for R178A/H198P (protein, UniProt P0AEE3 1-355, looked up, variant R178A H198P) Serine endoprotease DegS: MFVKLLRSVAIGLIVGAILLVAMPSLRSLNPLSTPQFDSTDETPASYNLAVRRAAPAVVNVYNRGLNTNSHNQLEIRTLGSGVIMDQRGYIITNKHVINDADQIIVALQDGRVFEALLVGSDSLTDLAVLKINATGGLPTIPINARRVPHIGDVVLAIGNPYNLGQTITQGIISATGAIGLNPTGRQNFLQTDASINPGNSGGALVNSLGELMGINTLSFDKSNDGETPEGIGFAIPFQLATKIMDKLIRDGRVIRGYIGIGGREIAPLHAQGGGIDQLQGIVVNEVSPDGPAANAGIQVNDLIISVDNKPAISALETMDQVAEIRPGSVIPVVVMRDDKQLTLQVTIQEYPATN in the records?
9–24%

// YYF-stimulated cleavage activity relative to H198P parental enzyme lookup, key: F220A/H198P (protein, UniProt P0AEE3 1-355, looked up, variant F220A H198P) Serine endoprotease DegS: MFVKLLRSVAIGLIVGAILLVAMPSLRSLNPLSTPQFDSTDETPASYNLAVRRAAPAVVNVYNRGLNTNSHNQLEIRTLGSGVIMDQRGYIITNKHVINDADQIIVALQDGRVFEALLVGSDSLTDLAVLKINATGGLPTIPINARRVPHIGDVVLAIGNPYNLGQTITQGIISATGRIGLNPTGRQNFLQTDASINPGNSGGALVNSLGELMGINTLSADKSNDGETPEGIGFAIPFQLATKIMDKLIRDGRVIRGYIGIGGREIAPLHAQGGGIDQLQGIVVNEVSPDGPAANAGIQVNDLIISVDNKPAISALETMDQVAEIRPGSVIPVVVMRDDKQLTLQVTIQEYPATN
9–24%
